Target: HLA-A*26:01
Assay: IEDB peptide-MHC binding, purified MHC/competitive/fluorescence; filed as Kd, often an IC50 or EC50 that approximates it; bounds were set here for any values at or beyond the usual limits of such assays
Conditions: source organism: Vibrio parahaemolyticus K5030
pKd: −log10 of the molar value.
Assay Endpoint: pKd

# Sequence Record, Tgt, Value Reported
measured = [
    ("LQNFCQHLV", "HLA-A*26:01", "≤ 4.70"),
]

* * *

Each entry below carries its reported pKd.
Molecular target: HLA-A*02:12
Assay: IEDB peptide-MHC binding, purified MHC/direct/fluorescence; filed as Kd, often an IC50 or EC50 that approximates it; bounds were set here for any values at or beyond the usual limits of such assays
Conditions: source organism: Zaire ebolavirus
pKd: −log10 of the molar value.

# Sequence Record, pKd
data = [
    ("NFFHASLAY", "≤ 4.70"),
    ("VLMKQIPIW", "≤ 4.70"),
    ("TPSGKRLQI", "≤ 4.70"),
    ("TSACGIFLK", "≤ 4.70"),
]

* * *

Target: HLA-A*01:01
Test: IEDB peptide-MHC binding, purified MHC/direct/fluorescence; filed as Kd, often an IC50 or EC50 that approximates it; bounds were set here for any values at or beyond the usual limits of such assays
Settings: source organism: Vibrio parahaemolyticus
Kd: recorded values

# Sequence Record, Tgt, Kd
data = [
    ("ALSMGINTV", "HLA-A*01:01", "≥ 20 µM"),
    ("EEDLPVTWR", "HLA-A*01:01", "≥ 20 µM"),
    ("GRNSRFPDK", "HLA-A*01:01", "≥ 20 µM"),
]

* * *

Target: HLA-B*46:01
Assay: IEDB peptide-MHC binding, purified MHC/direct/fluorescence; filed as Kd, often an IC50 or EC50 that approximates it; bounds were set here for any values at or beyond the usual limits of such assays
Details: source organism: Entamoeba histolytica HM-1:IMSS
pKd: −log10 of the molar value.
Assay Endpoint: pKd

# Sequence Record, Assay Endpoint, Value Reported
rows = [
    ("IESNPLFPV", "pKd", "≤ 4.70"),
]

* * *

Target: HLA-B*07:02
Test: IEDB peptide-MHC binding, purified MHC/competitive/fluorescence; filed as Kd, often an IC50 or EC50 that approximates it; bounds were set here for any values at or beyond the usual limits of such assays
Details: source organism: Burkholderia mallei SAVP1
pKd: −log10 of the molar value.
Assay Endpoint: pKd

# Sequence Record, Value Reported
measured = [
    ("NVMDPMHGA", "≤ 5.30"),
]

* * *

Target: HLA-A*11:01
Assay: IEDB peptide-MHC binding, purified MHC/direct/fluorescence; filed as Kd, often an IC50 or EC50 that approximates it; bounds were set here for any values at or beyond the usual limits of such assays
Conditions: source organism: Yellow fever virus 17D

# Sequence Record, Kd
rows = [
    ("KTHESHLVR", "35.6 nM"),
]

* * *

Biological target: HLA-B*53:01
Experiment: IEDB peptide-MHC binding, purified MHC/competitive/radioactivity; filed as Kd, often an IC50 or EC50 that approximates it; bounds were set here for any values at or beyond the usual limits of such assays
Conditions: source organism: Mammarenavirus juninense

# Sequence Record, Kd
records = [
    ("TPDNFSSLI", "372 nM"),
]
